Tested on: biotinyl-Val-oxazolone
assayNotes: self-aminoacylation, catalytic enhancement (BVO) (fold over background); higher = more active; k-Seq, kA / k0A0; sequences stand for … in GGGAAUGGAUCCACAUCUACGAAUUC…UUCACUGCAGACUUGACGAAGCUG
This sample holds only a part of the variants without activity.
Quick rule: self-aminoacylation of at least 1 means t, below that means f.

[[record]]
polymersequence = "AUUACGCUGGCCAUCGAGUGA [Fam2.1 aminoacylation ribozyme variant]"
classname = "t"

[[record]]
polymersequence = "AUUACCCAGGUCACCGAGUGA [Fam2.1 aminoacylation ribozyme variant]"
classname = "t"

[[record]]
polymersequence = "AAGUUUGCUAAUAAUUGCAAG [Fam3.1 aminoacylation ribozyme variant]"
classname = "f"

[[record]]
polymersequence = "CCACACUCCAAACAAUCGGUC [Fam1B.1 aminoacylation ribozyme variant]"
classname = "t"

[[record]]
polymersequence = "UAGUUUGCUAAUCGUCGCAAG [Fam3.1 aminoacylation ribozyme variant]"
classname = "t"

[[record]]
polymersequence = "CUACUUAAGACAAUCGGUCUG [Fam1A.1 aminoacylation ribozyme variant]"
classname = "f"

[[record]]
polymersequence = "CCACACUUCAACCAAUCGUUC [Fam1B.1 aminoacylation ribozyme variant]"
classname = "f"

[[record]]
polymersequence = "CCACACUUCAAUCAAUCCGUC [Fam1B.1 aminoacylation ribozyme variant]"
classname = "f"

[[record]]
polymersequence = "GUACUUCAAACAAUCGGGCUG [Fam1A.1 aminoacylation ribozyme variant]"
classname = "t"

[[record]]
polymersequence = "AUUCACAUAUGUCAUCGGGUG [Fam2.2 aminoacylation ribozyme variant]"
classname = "t"

[[record]]
polymersequence = "AAGUUUGAUAAUAGUCGUAAG [Fam3.1 aminoacylation ribozyme variant]"
classname = "f"

[[record]]
polymersequence = "AUUCACCUAGGUCAUCAGUUG [Fam2.2 aminoacylation ribozyme variant]"
classname = "f"

[[record]]
polymersequence = "AUUACCCUGGUUAGCGAGUGA [Fam2.1 aminoacylation ribozyme variant]"
classname = "t"

[[record]]
polymersequence = "CCAGACUUCAAGCAAUCUGUC [Fam1B.1 aminoacylation ribozyme variant]"
classname = "f"

[[record]]
polymersequence = "AUGACCCUGGUCAUCGUGUGA [Fam2.1 aminoacylation ribozyme variant]"
classname = "t"

[[record]]
polymersequence = "AUUACCCUGGUCAUCGGGUGU [Fam2.1 aminoacylation ribozyme variant]"
classname = "t"

[[record]]
polymersequence = "AAGUUUGCCAAUAGUCGGAAG [Fam3.1 aminoacylation ribozyme variant]"
classname = "f"

[[record]]
polymersequence = "CCACACUUCAAGGAAUCGGUU [Fam1B.1 aminoacylation ribozyme variant]"
classname = "t"

